- System: mu opiate receptor (MOR)
- Run description: MOR agonist activity using [35S]GTPγS binding assay in striatal membranes
- Type: biochemical
- Condition summary: Series C-1; 1 μM compound + β-FNA, relative to DAMGO + BFNA

{"Compound": "COc1ccc(S(=O)(=O)N2CCC3(CC2)OCCN3S(=O)(=O)c2ccc(C(C)=O)cc2)cc1", "System name": "mu opiate receptor (MOR)", "% DAMGO + BFNA (%)": 204.3}
{"Compound": "O=S(=O)(c1ccc(Oc2ccccc2)cc1)N1CCC2(CC1)OCCN2S(=O)(=O)c1ccc(Oc2ccccc2)cc1 [Compound C0149M]", "System name": "mu opiate receptor (MOR)", "% DAMGO + BFNA (%)": 102.3}
{"Compound": "CC(=O)c1ccc(S(=O)(=O)N2CCC3(CC2)NC(=O)CN3S(=O)(=O)c2ccc(C(C)=O)cc2)cc1", "System name": "mu opiate receptor (MOR)", "% DAMGO + BFNA (%)": 110.4}
{"Compound": "COc1cccc(S(=O)(=O)N2CCC3(CC2)OCCN3S(=O)(=O)c2cccc(OC)c2)c1", "System name": "mu opiate receptor (MOR)", "% DAMGO + BFNA (%)": 6.1}
{"Compound": "O=C(c1ccc([N+](=O)[O-])cc1)N1CCC2(CC1)OCCN2S(=O)(=O)c1ccc([N+](=O)[O-])cc1 [Compound C0033]", "System name": "mu opiate receptor (MOR)", "% DAMGO + BFNA (%)": 235.0}
{"Compound": "Cc1ccccc1S(=O)(=O)N1CCC2(CC1)OCCN2S(=O)(=O)c1ccccc1C", "System name": "mu opiate receptor (MOR)", "% DAMGO + BFNA (%)": 193.0}
{"Compound": "O=S(=O)(c1ccccc1)N1CCC2(CC1)OCCN2S(=O)(=O)c1ccccc1", "System name": "mu opiate receptor (MOR)", "% DAMGO + BFNA (%)": 150.9}
{"Compound": "O=C1CN(Cc2ccccc2)C2(CCN(S(=O)(=O)c3cc(Cl)cc(Cl)c3O)CC2)N1 [Compound C0138M]", "System name": "mu opiate receptor (MOR)", "% DAMGO + BFNA (%)": 131.0}
{"Compound": "Cc1cccc(S(=O)(=O)N2CCC3(CC2)OCCN3S(=O)(=O)c2cccc(C)c2)c1", "System name": "mu opiate receptor (MOR)", "% DAMGO + BFNA (%)": 116.1}
{"Compound": "COc1ccc(C(=O)N2CCOC23CCN(S(=O)(=O)c2ccc(OC)cc2)CC3)cc1", "System name": "mu opiate receptor (MOR)", "% DAMGO + BFNA (%)": 80.4}
{"Compound": "O=S(=O)(c1ccc(Br)cc1F)N1CCC2(CC1)OCCN2S(=O)(=O)c1ccc(Br)cc1F", "System name": "mu opiate receptor (MOR)", "% DAMGO + BFNA (%)": 359.4}

----------
- Tested on: mu opiate receptor (MOR)
- Run description: MOR agonist activity using [35S]GTPγS binding assay in striatal membranes
- Type: biochemical
- Condition summary: Series B; 1 μM compound, relative to DAMGO
Rule: met for % DAMGO (1 μM) not less than 90%, not met for anything less.

{"Compound": "COc1ccc(C(=O)CC2c3c(cc4c(c3OC)OCO4)CC[N+]2(C)C)cc1 (stereo not drawn)", "Discrete label": "met"}
{"Compound": "COc1ccc(C(=O)CC2c3c(cc4c(c3OC)OCO4)CC[N+]2(C)C)c(O)c1 (stereo not drawn)", "Discrete label": "not met"}
{"Compound": "COc1ccc(OC)c(CCC(=O)CC2c3c(cc4c(c3OC)OCO4)CC[N+]2(C)C)c1 (stereo not drawn)", "Discrete label": "not met"}
{"Compound": "COc1ccc(CCC(=O)CC2c3c(cc4c(c3OC)OCO4)CC[N+]2(C)C)cc1OC (stereo not drawn)", "Discrete label": "not met"}
{"Compound": "COc1cc(F)ccc1C(=O)CC1c2c(cc3c(c2OC)OCO3)CC[N+]1(C)C (stereo not drawn)", "Discrete label": "not met"}
{"Compound": "COc1c2c(cc3c1C(CC(=O)c1ccncc1)[N+](C)(C)CC3)OCO2 (stereo not drawn)", "Discrete label": "not met"}
{"Compound": "COc1c2c(cc3c1C(CC(=O)c1ccc(C#N)cc1)[N+](C)(C)CC3)OCO2 (stereo not drawn)", "Discrete label": "not met"}
{"Compound": "COc1cccc(OC)c1C(=O)CC1c2c(cc3c(c2OC)OCO3)CC[N+]1(C)C (stereo not drawn)", "Discrete label": "met"}
{"Compound": "COc1c2c(cc3c1C(CC(O)CCc1ccccc1)N(C)CC3)OCO2 (stereo not drawn)", "Discrete label": "not met"}
{"Compound": "COc1ccccc1C(=O)CC1c2c(cc3c(c2OC)OCO3)CC[N+]1(C)C (stereo not drawn)", "Discrete label": "not met"}
{"Compound": "COc1c2c(cc3c1C(CC(=O)Cc1ccccc1F)[N+](C)(C)CC3)OCO2 (stereo not drawn)", "Discrete label": "met"}
{"Compound": "COc1c2c(cc3c1C(CC(=O)Cc1ccccc1C)N(C)CC3)OCO2 (stereo not drawn)", "Discrete label": "met"}
{"Compound": "COc1ccc(CC(=O)CC2c3c(cc4c(c3OC)OCO4)CC[N+]2(C)C)c(OC)c1 (stereo not drawn)", "Discrete label": "not met"}
{"Compound": "COc1c2c(cc3c1C(CC(O)CCc1ccccc1)[N+](C)(C)CC3)OCO2 (stereo not drawn)", "Discrete label": "not met"}
{"Compound": "COc1ccccc1CC(=O)CC1c2c(cc3c(c2OC)OCO3)CC[N+]1(C)C (stereo not drawn)", "Discrete label": "not met"}
{"Compound": "COCOc1ccc(CCC(=O)CC2c3c(cc4c(c3OC)OCO4)CC[N+]2(C)C)cc1 (stereo not drawn)", "Discrete label": "met"}
{"Compound": "COc1c2c(cc3c1C(CC(=O)CCc1ccccc1)N(C)CC3)OCO2 (stereo not drawn)", "Discrete label": "met"}
{"Compound": "COc1c2c(cc3c1C(CC(=O)c1ccc(O)c(C)c1)[N+](C)(C)CC3)OCO2 (stereo not drawn)", "Discrete label": "not met"}
{"Compound": "COc1ccccc1CC(O)CC1c2c(cc3c(c2OC)OCO3)CC[N+]1(C)C (stereo not drawn)", "Discrete label": "met"}
{"Compound": "COc1cc(CC(=O)CC2c3c(cc4c(c3OC)OCO4)CC[N+]2(C)C)cc(OC)c1OC (stereo not drawn)", "Discrete label": "met"}
{"Compound": "CCOc1ccc(C(=O)CC2c3c(cc4c(c3OC)OCO4)CC[N+]2(C)C)cc1F (stereo not drawn)", "Discrete label": "not met"}
